Origin of the recorded values: paper PMC7017424

- Substrate: O=[N+]([O-])c1ccc(Cl)c2nonc12
- run-description: purified protein
- Format: biochemical, Oryza sativa
- test-settings: 1.0 mM GSH fixed, NBD-Cl 0.1-1.0 mM, 25 °C, apparent Km, Km above tested range
Measured kcat/Km by item
Numeric only. Scale: M⁻¹ s⁻¹

| protein | kcat/Km, M⁻¹ s⁻¹ |
| --- | --- |
| OsGSTU17 (Oryza sativa Japonica Group; F162A) (protein, about 25 kDa subunit; dimeric enzyme; mutants L112A and W165A expressed at 20 °C) MAADKGVKVFGMWASPMAIRVEWALRLKGVDYEYVDEDLANKSEALLRHNPVTKKVPVLVHDGKPLAESTVIVEYIDEAWKHGYPIMPSDPFDRAQARFWARFAEEKCNAALYPIFMTTGEEQRKLVHEAQQCLKTLETALEGKKFFGGDAFGYLDIVTGWAAYWLPVIEEACGVEVVTDEALPLMKAWFDRVLAVDAVKAVLPPRDKLVALNKARREQILSA | 407 |

Q. For the protein shown here, OsGSTU17 (Oryza sativa Japonica Group; W161A) (protein, about 25 kDa subunit; dimeric enzyme; mutants L112A and W165A expressed at 20 °C) MAADKGVKVFGMWASPMAIRVEWALRLKGVDYEYVDEDLANKSEALLRHNPVTKKVPVLVHDGKPLAESTVIVEYIDEAWKHGYPIMPSDPFDRAQARFWARFAEEKCNAALYPIFMTTGEEQRKLVHEAQQCLKTLETALEGKKFFGGDAFGYLDIVTGAFAYWLPVIEEACGVEVVTDEALPLMKAWFDRVLAVDAVKAVLPPRDKLVALNKARREQILSA , give the reported kcat/Km.
A. 894

Q. Then what about the protein OsGSTU17 (Oryza sativa Japonica Group; M17A) (protein, about 25 kDa subunit; dimeric enzyme; mutants L112A and W165A expressed at 20 °C) MAADKGVKVFGMWASPAAIRVEWALRLKGVDYEYVDEDLANKSEALLRHNPVTKKVPVLVHDGKPLAESTVIVEYIDEAWKHGYPIMPSDPFDRAQARFWARFAEEKCNAALYPIFMTTGEEQRKLVHEAQQCLKTLETALEGKKFFGGDAFGYLDIVTGWFAYWLPVIEEACGVEVVTDEALPLMKAWFDRVLAVDAVKAVLPPRDKLVALNKARREQILSA ?
A. 221
